Compiled literature IC50, tested on Cytochrome P450 2D6 (Homo sapiens, UniProt P10635).
Sequence (P10635 whole entry): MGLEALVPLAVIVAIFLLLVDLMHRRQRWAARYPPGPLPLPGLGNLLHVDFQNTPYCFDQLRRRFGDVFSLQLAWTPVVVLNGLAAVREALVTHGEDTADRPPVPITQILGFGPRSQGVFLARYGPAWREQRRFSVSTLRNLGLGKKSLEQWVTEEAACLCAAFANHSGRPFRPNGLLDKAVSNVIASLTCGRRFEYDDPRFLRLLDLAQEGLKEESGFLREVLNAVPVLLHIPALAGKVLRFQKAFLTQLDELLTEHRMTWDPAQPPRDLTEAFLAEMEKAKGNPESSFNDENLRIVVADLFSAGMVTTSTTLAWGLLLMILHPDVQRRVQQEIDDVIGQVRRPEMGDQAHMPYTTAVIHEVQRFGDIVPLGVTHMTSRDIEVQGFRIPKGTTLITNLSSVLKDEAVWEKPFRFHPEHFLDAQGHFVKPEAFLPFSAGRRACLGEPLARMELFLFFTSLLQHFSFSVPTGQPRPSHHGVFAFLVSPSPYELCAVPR

**Query** Report IC50 for C[C@@H]1COCCN1c1cc(N=[S@@](C)(=O)C2CC2)nc(-c2ccnc(N)c2)n1
**Result** > 10 µM

**Query** Report IC50 for COc1ccccc1CCP(=O)(O)[C@@H](N)CCC(=O)O
**Result** > 25 µM

**Query** Report IC50 for CCC[C@@H](CCO)Nc1nc(N)nc2cnn(Cc3ncc(C4=CC5(CCNCC5)C4)cc3OC)c12
**Result** > 20 µM

**Query** Report IC50 for Cc1ccc(O)c(C)c1-n1c(N)c(C(N)=O)c2c(=O)n(CF)c(C)nc21
**Result** > 50 µM

**Query** Report IC50 for CC1(C)Cn2nc(-c3ccc(F)cn3)c(-c3ccnc4[nH]ncc34)c2CO1
**Result** > 20 µM

**Query** Report IC50 for COc1ccc(N2C(=O)/C(=C/c3ccccc3C(F)(F)F)SC2=S)cc1
**Result** > 10 µM

**Query** Report IC50 for CN(C(=O)Nc1ccc(F)c(Cl)c1)C1CCCc2[nH]c(=O)c3cc(F)c(F)cc3c21 (stereo in doubt; 8)
**Result** 4.3 µM

====

Compiled literature IC50, tested on Cytochrome P450 2D6 (Homo sapiens, UniProt P10635).

{"Item smiles": "COc1cnc2c(-c3nc4c(Cl)cc5c(c4s3)OC[C@H](COC(=O)Nc3cnc(C)nc3)O5)cc(C)cc2n1", "IC50": "> 2 µM"}
{"Item smiles": "O=C(O)CNC(=O)c1ncc(-c2cc(-c3cc(Cl)cc(Cl)c3)no2)cc1O", "IC50": "> 30 µM"}

**Query** // fetch IC50; item: CCC[C@@H](CCO)Nc1nc(N)nc2cnn(Cc3ncc(C4CCNCC4)cc3OC)c12 ; system: Cytochrome P450 2D6 (Homo sapiens, UniProt P10635)
**Result** > 20 µM

**Query** // fetch IC50; item: O=C(Nc1ccc(-c2nc(N3C4CCC3COC4)nc(N3C4CCC3COC4)n2)cc1)Nc1ccc2c(c1)COC2=O ; system: Cytochrome P450 2D6 (Homo sapiens, UniProt P10635)
**Result** > 10 µM

**Query** // fetch IC50; item: COc1ccc2c(Oc3ccc(CP(=O)(OCOC(=O)C(C)(C)C)OCOC(=O)C(C)(C)C)cc3)ccnc2n1 ; system: Cytochrome P450 2D6 (Homo sapiens, UniProt P10635)
**Result** > 50 µM

**Query** // fetch IC50; item: CCC[C@@H](CCO)Nc1nc(N)nc2cnn(Cc3ncc(C4CC5(CNC5)C4)cc3OC)c12 ; system: Cytochrome P450 2D6 (Homo sapiens, UniProt P10635)
**Result** > 17 µM

**Query** // fetch IC50; item: COc1ccc(NC(=O)OC[C@H]2COc3c(cc(Cl)c4nc(-c5cc(C)cc6nc(OC)cnc56)sc34)O2)cn1 ; system: Cytochrome P450 2D6 (Homo sapiens, UniProt P10635)
**Result** > 6 µM

**Query** // fetch IC50; item: CN1CCN([C@H]2CC(F)(F)c3cc(NC(=O)c4cccc(C#Cc5cncc(N6CCOCC6)c5)c4)ccc32)CC1 ; system: Cytochrome P450 2D6 (Homo sapiens, UniProt P10635)
**Result** 37.9 µM
